Give measured inhibition at 20 µM for each item. Keep answers brief.
TARGET: xanthine oxidase (Bos taurus, UniProt P80457)
Sequence (P80457 whole entry): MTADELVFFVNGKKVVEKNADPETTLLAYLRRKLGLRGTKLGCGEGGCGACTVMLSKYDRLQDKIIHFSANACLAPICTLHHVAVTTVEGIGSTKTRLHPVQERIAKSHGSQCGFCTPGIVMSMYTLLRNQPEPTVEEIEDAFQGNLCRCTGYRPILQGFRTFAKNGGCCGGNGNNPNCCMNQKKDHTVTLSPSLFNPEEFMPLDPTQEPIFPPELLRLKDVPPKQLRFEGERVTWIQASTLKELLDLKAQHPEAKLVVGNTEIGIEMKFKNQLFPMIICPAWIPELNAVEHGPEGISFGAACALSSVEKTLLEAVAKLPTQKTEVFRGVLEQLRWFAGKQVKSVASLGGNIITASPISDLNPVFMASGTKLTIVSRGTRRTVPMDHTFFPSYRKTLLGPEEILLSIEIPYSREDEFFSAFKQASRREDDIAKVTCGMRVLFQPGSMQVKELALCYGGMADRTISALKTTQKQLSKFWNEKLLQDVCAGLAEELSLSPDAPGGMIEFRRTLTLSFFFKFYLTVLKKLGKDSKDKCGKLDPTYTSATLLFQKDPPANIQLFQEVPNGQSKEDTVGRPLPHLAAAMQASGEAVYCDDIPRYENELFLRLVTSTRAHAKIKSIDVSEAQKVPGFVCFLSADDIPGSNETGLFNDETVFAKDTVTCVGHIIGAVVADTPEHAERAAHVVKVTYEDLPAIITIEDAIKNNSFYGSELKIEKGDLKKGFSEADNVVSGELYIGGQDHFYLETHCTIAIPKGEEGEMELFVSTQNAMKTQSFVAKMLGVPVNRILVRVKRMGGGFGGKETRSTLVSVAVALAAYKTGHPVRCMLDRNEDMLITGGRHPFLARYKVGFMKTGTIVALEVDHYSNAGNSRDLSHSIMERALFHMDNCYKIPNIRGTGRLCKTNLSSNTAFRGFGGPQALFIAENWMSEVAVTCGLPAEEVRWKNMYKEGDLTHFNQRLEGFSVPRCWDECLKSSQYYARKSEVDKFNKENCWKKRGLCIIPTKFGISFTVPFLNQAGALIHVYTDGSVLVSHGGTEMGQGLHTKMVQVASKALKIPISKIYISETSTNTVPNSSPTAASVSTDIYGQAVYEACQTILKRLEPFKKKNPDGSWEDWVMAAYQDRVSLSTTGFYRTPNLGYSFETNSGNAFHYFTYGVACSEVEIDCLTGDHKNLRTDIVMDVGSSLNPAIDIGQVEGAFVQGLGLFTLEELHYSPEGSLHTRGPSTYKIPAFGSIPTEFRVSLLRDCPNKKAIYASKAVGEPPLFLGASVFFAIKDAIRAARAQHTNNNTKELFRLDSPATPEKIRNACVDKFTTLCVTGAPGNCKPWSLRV
EXPERIMENT_NOTES: in vitro xanthine oxidase inhibition (hypoxanthine substrate, absorbance at 292, pH 7.4 buffer; Baker et al procedure)
Format: biochemical
MEASUREMENT_CONTEXT: test compound 2 × 10^-5 M, hypoxanthine 6 × 10^-5 M solution, 1 minute
# output: bare number, implied unit %

Asked: What measured inhibition at 20 µM is associated with CCN(CC)S(=O)(=O)c1cc2c(cc1Cl)N=C(CCl)NS2(=O)=O on xanthine oxidase (Bos taurus, UniProt P80457)?
Given back: 75

Asked: Identify the measured inhibition at 20 µM of CN(C)S(=O)(=O)c1cc2c(cc1Cl)N=C(C(Cl)Cl)NS2(=O)=O for xanthine oxidase (Bos taurus, UniProt P80457).
Given back: 11

Asked: # value lookup — system xanthine oxidase (Bos taurus, UniProt P80457), readout inhibition at 20 µM, item CCCN(CCC)S(=O)(=O)c1cc2c(c(Cl)c1Cl)N=C(C(Cl)(Cl)Cl)NS2(=O)=O
Given back: 26

Asked: Which measured inhibition at 20 µM belongs to C=CCN(CC=C)S(=O)(=O)c1cc2c(cc1Cl)N=C(CCl)NS2(=O)=O , tested on xanthine oxidase (Bos taurus, UniProt P80457)?
Given back: 53

Asked: Query inhibition at 20 µM on xanthine oxidase (Bos taurus, UniProt P80457) for NS(=O)(=O)c1cc2c(cc1Cl)NC(C(Cl)(Cl)Cl)NS2(=O)=O (stereo not drawn)
Given back: 45

Asked: Item CCN(CC)S(=O)(=O)c1cc2c(cc1Cl)N=C(C(Cl)(Cl)Cl)NS2(=O)=O with xanthine oxidase (Bos taurus, UniProt P80457) - inhibition at 20 µM?
Given back: 3

Asked: Any idea what inhibition at 20 µM came out for CCCN(CCC)S(=O)(=O)c1cc2c(cc1Cl)N=C(CBr)NS2(=O)=O on xanthine oxidase (Bos taurus, UniProt P80457)?
Given back: 30

Asked: Item NS(=O)(=O)c1cc2c(cc1Cl)N=C(CCl)NS2(=O)=O with xanthine oxidase (Bos taurus, UniProt P80457) - inhibition at 20 µM?
Given back: 24

Asked: What is its inhibition at 20 µM for xanthine oxidase (Bos taurus, UniProt P80457)? Entry: CCCN(CCC)S(=O)(=O)c1cc2c(cc1Cl)N=C(CCl)NS2(=O)=O
Given back: 69

Asked: Item CCCN(CCC)S(=O)(=O)c1cc2c(c(Cl)c1Cl)N=C(C(Cl)Cl)NS2(=O)=O with xanthine oxidase (Bos taurus, UniProt P80457) - inhibition at 20 µM?
Given back: 21

Asked: Provide the documented inhibition at 20 µM with xanthine oxidase (Bos taurus, UniProt P80457) as the system for CCCN(CCC)S(=O)(=O)c1cc2c(cc1Cl)N=C(C(Cl)Cl)NS2(=O)=O
Given back: 12

Asked: Request body: readout inhibition at 20 µM, system xanthine oxidase (Bos taurus, UniProt P80457), query CCCN(CCC)S(=O)(=O)c1cc2c(cc1Cl)N=C(C(Cl)(Cl)Cl)NS2(=O)=O . Return the value.
Given back: 14
